test: Metabolic stability test in liver S9; assay type: in vitro ADME; settings: pH 7.4; unchanged form after 60 minutes at 37°C, human liver S9 2 mg protein/mL, LC/MS; read-out: Remaining rate in human liver S9 (%/60min)
OUTCOME_MEASURE: remaining at 1 h (%)
Give your result in % as a bare value.

Completed entries (count: 2):
CC(C)OCCOC(=O)c1ccc(OC(=O)CCCc2ccc(NC(=O)c3ccccc3-c3ccc(C(F)(F)F)cc3)c(C(=O)N(C)C)c2)cc1 [Compound 1-76]
2
COC(=O)c1ccc(OC(=O)CCCc2ccc(NC(=O)c3ccccc3-c3ccc(C(F)(F)F)cc3)c(C(=O)N(C)C)c2)c(C)c1 [Compound 1-66]
0

Give the measured remaining at 1 h of CCc1cc(C(=O)OC)cc(F)c1OC(=O)CCCc1ccc(NC(=O)c2ccc(C)nc2-c2ccc(C(F)(F)F)cc2)c(C(=O)N(C)C)c1 [Compound 1-42] .
0

Give the measured remaining at 1 h of COC(=O)c1ccc(-c2nc(C)ccc2C(=O)Nc2ccc(CCCC(=O)Oc3c(Cl)cc(C(=O)OC)cc3OC)cc2C(=O)N(C)C)cc1 [Compound 4-4] .
0

---

experiment: Stability test in buffer (pH 7.4); assay type: physicochemical; conditions: phosphate buffer/acetonitrile 7:3; 10 minutes at 37°C, 100 mM potassium phosphate buffer (pH 7.4) and acetonitrile 7:3 (v/v), LC/MS; read-out: Buf. remaining rate (%/10min)
Listed next: entries and their corresponding remaining at 10 min.
Give your result in % as a bare value.

Completed entries (count: 5):
COC(=O)c1cc(C)c(OC(=O)CCCc2ccc(NC(=O)c3ccc(C)nc3-c3ccc(C(F)(F)F)cc3)c(C(=O)N(C)C)c2)c(F)c1 [Compound 1-41]
103
Cc1ccc(C(=O)Nc2ccc(CCCC(=O)Oc3ccc(C(=O)OC(C)C)cc3)cc2C(=O)N(C)C)c(-c2ccc(C(F)(F)F)cc2)n1 [Compound 1-81]
99
CN(C)C(=O)c1cc(CCCC(=O)Oc2ccc(C(=O)O)cc2)ccc1NC(=O)c1ccccc1-c1ccc(C(F)(F)F)cc1 [Compound 1-25]
99
CCCOC(=O)c1cc(Cl)c(OC(=O)CCCc2ccc(NC(=O)c3ccc(C)nc3-c3ccc(C(F)(F)F)cc3)c(C(=O)N(C)C)c2)c(OC)c1 [Compound 1-75]
113
COC(=O)c1cc(C(=O)OC(C)C)ccc1OC(=O)CCCc1ccc(NC(=O)c2ccc(C)nc2-c2ccc(C(F)(F)F)cc2)c(C(=O)N(C)C)c1 [Compound 1-72]
113

Give the measured remaining at 10 min of COC(=O)c1ccc(OC(=O)C2CCN(c3ccc(NC(=O)c4ccccc4-c4ccc(C(F)(F)F)cc4)c(C(=O)N(C)C)c3)CC2)cc1 [Compound 3-1] .
98

---

Listed next: entries and their corresponding remaining at 10 min.
assay: Stability test in buffer (pH 7.4); assay type: physicochemical; details: phosphate buffer/acetonitrile 7:3; 10 minutes at 37°C, 100 mM potassium phosphate buffer (pH 7.4) and acetonitrile 7:3 (v/v), LC/MS; read-out: Buf. remaining rate (%/10min)
Give your result in % as a bare value.

Give the measured remaining at 10 min of `CN(C)C(=O)COC(=O)c1ccc(OC(=O)CCCc2ccc(NC(=O)c3ccccc3-c3ccc(C(F)(F)F)cc3)c(C(=O)N(C)C)c2)cc1` .
103

Give the measured remaining at 10 min of `CCOC(=O)c1cc(C)c(OC(=O)CCCc2ccc(NC(=O)c3ccc(C)nc3-c3ccc(C(F)(F)F)cc3)c(C(=O)N(C)C)c2)c(C(=O)OC)c1` .
100

Give the measured remaining at 10 min of `COc1cc(C(=O)OC(C)C)cc(F)c1OC(=O)CCCc1ccc(NC(=O)c2ccc(C)nc2-c2ccc(C(F)(F)F)cc2)c(C(=O)N(C)C)c1` .
101

Give the measured remaining at 10 min of `COC(=O)c1cc(Br)c(OC(=O)CCCc2ccc(NC(=O)c3ccc(C)nc3-c3ccc(C(F)(F)F)cc3)c(C(=O)N(C)C)c2)c(OC)c1` .
97

Give the measured remaining at 10 min of `CCCC(=O)c1ccc(OC(=O)CCCc2ccc(NC(=O)c3ccccc3-c3ccc(C(F)(F)F)cc3)c(C(=O)N(C)C)c2)cc1` .
107

Give the measured remaining at 10 min of `COC(=O)c1ccc(OC(=O)CCCc2ccc(NC(=O)c3ccccc3-c3ccc(C(F)(F)F)cc3)c(C(=O)N(C)C)c2)cc1` .
100

Give the measured remaining at 10 min of `COC(=O)c1ccc(OC(=O)CCCc2ccc(NC(=O)c3ccccc3-c3ccc(C(F)(F)F)cc3)c(C(=O)N3CCOCC3)c2)cc1` .
99

Give the measured remaining at 10 min of `COC(=O)c1ccc(-c2nc(C)ccc2C(=O)Nc2ccc(CCCC(=O)Oc3c(Cl)cc(C(=O)OC)cc3OC)cc2C(=O)N(C)C)cc1` .
99
